Assay Summary: in vitro
Condition Label: human
Endpoint Name: viability at 48 h, 800 µM (%)
Record the value in %, omitting the unit from your answer.

Q: Looking for the measured viability at 48 h, 800 µM of Nc1ncnc2c1ncn2[C@@H]1O[C@H](CO)[C@@H](O)[C@H]1O [Ade, adenosine, reference compound] , can you help?
Result: 93
